Data provenance is the supplement of paper PMC4709259.

Tested on: Jurkat
method: cell count relative to DMSO control (fraction of control); higher = more cells (less growth inhibition)
assay-context: 48 h
Where a name gives a salt, the structure may show the parent alone.

compound	cell count
CN/C(=N\CCSCc1nc[nH]c1C)NC#N [Cimetidine] (concentration: 25 µM)	0.733
Cc1onc(-c2ccccc2Cl)c1C(=O)N[C@@H]1C(=O)N2[C@@H]1SC(C)(C)[C@@H]2C(=O)O [Cloxacillin·Na] (concentration: 25 µM)	0.703
O=C(O)c1cc(/N=N/c2ccc(S(=O)(=O)Nc3ccccn3)cc2)ccc1O [Sulfasalazine] (concentration: 25 µM)	0.914
C[C@@H]1C[C@H]2[C@@H]3CCC4=CC(=O)C=C[C@]4(C)[C@@]3(Cl)[C@@H](O)C[C@]2(C)[C@@]1(OC(=O)c1ccco1)C(=O)CCl [Mometasone Furoate] (concentration: 25 µM)	0.47
CCN(CC)CCNC(=O)c1c(C)[nH]c(/C=C2\C(=O)Nc3ccc(F)cc32)c1C [Sunitinib Malate] (concentration: 250 nM)	0.861
Cc1oncc1C(=O)Nc1ccc(C(F)(F)F)cc1 [Leflunomide] (concentration: 25 µM)	0.606
CC(CCc1ccc(O)cc1)NCCc1ccc(O)c(O)c1 (stereo not given) [Dobutamine·HCl] (concentration: 25 µM)	0.464
CC1=Nc2ccc(Cl)cc2S(=O)(=O)N1 [Diazoxide] (concentration: 25 µM)	0.916
O=C(O)CCCc1ccccc1 [Sodium Phenylbutyrate] (concentration: 25 µM)	1.05
NC(=O)OCC(COC(N)=O)c1ccccc1 [Felbamate] (concentration: 25 µM)	0.755
Cc1cc(NS(=O)(=O)c2ccc(N)cc2)no1 [Sulfamethoxazole] (concentration: 25 µM)	0.809
CN(C/C=C/C#CC(C)(C)C)Cc1cccc2ccccc12 [Terbinafine·HCl] (concentration: 25 µM)	0.947
N=c1nc(N2CCCCC2)cc(N)n1O [Minoxidil] (concentration: 25 µM)	0.703
COC(=O)CCC(=O)CN [Methyl Aminolevulinate·HCl] (concentration: 25 µM)	0.739
CN(C)CCC(c1ccc(Br)cc1)c1ccccn1 (stereo not given) [Brompheniramine Maleate] (concentration: 25 µM)	1

====

Test system: Jurkat
method: mean cell size (FSC-A) relative to DMSO control (fraction of control); higher = larger cells
assay-context: 48 h
Structures can show the parent of a compound that is named as a salt.

compound	mean cell size
OC(Cn1cncn1)(Cn1cncn1)c1ccc(F)cc1F [Fluconazole] (concentration: 25 µM)	0.969
C=C(c1ccc(C(=O)O)cc1)c1cc2c(cc1C)C(C)(C)CCC2(C)C [Bexarotene] (concentration: 2.5 µM)	0.942
Nc1nnc(-c2cccc(Cl)c2Cl)c(N)n1 [Lamotrigine] (concentration: 25 µM)	1.01
Cc1cn([C@H]2C[C@H](N=[N+]=[N-])[C@@H](CO)O2)c(=O)[nH]c1=O [Zidovudine (3'-Azido-3'-Deoxythymidine)] (concentration: 25 µM)	1.03
CC(CN(C)C)CN1c2ccccc2CCc2ccccc21 (configuration not stated) [Trimipramine Maleate] (concentration: 25 µM)	1.02
Oc1c(Cl)cc(Cl)c(Cl)c1Cc1c(O)c(Cl)cc(Cl)c1Cl [Hexachlorophene] (concentration: 2.5 µM)	0.904
C[C@]12C=CC(=O)N[C@@H]1CC[C@@H]1[C@@H]2CC[C@]2(C)[C@@H](C(=O)Nc3cc(C(F)(F)F)ccc3C(F)(F)F)CC[C@@H]12 [Dutasteride] (concentration: 25 µM)	0.983
